system: HLA-A*02:01 (Homo sapiens, UniProt P04439, D140Y/D185E/D98H/E176V/E277Q/G131W/G231S/I119V/I121R/I166T/I218V/L300P/L318F/N151K/N90K/P208A/P217A/Q86G/Q94H/R138H/R169H/T345S)
protocolNotes: MHC binding assay: UV-ligand exchange with β2m ELISA (peptide exchange yield)
testParameters: binding to HLA-A*02:01 evaluated by peptide exchange yield (UV-ligand exchange, β2m ELISA)
endpointLabel: Peptide exchange

substance | assayResult
18 (KTASINQNV; listed as Homo sapiens) [compound 18] | ++ (≥20% = ++)
21 (YLMDDFSSL; listed as Homo sapiens) [compound 21] | +++ (≥50 = +++)
52 (TIGIPFPNV; listed as Homo sapiens) [compound 52] | ++ (≥20% = ++)
113 (FLFLKEVKV; listed as Homo sapiens) [compound 113] | ++ (≥20% = ++)
40 (KIWEELSVLEV; listed as Homo sapiens) [compound 40] | +++ (≥50 = +++)
31 (GLLETTGLLAT; listed as Homo sapiens) [compound 31] | +++ (≥50 = +++)
237 (ALLEQTGDMSL; listed as Homo sapiens) [compound 237] | +++ (≥50 = +++)
96 (ALDTTRHEL; listed as Homo sapiens) [compound 96] | ++ (≥20% = ++)
79 (TVLEEIGNRV; listed as Homo sapiens) [compound 79] | ++ (≥20% = ++)
70 (GLTEKTVLV; listed as Homo sapiens) [compound 70] | ++ (≥20% = ++)
97 (KLFEKSTGL; listed as Homo sapiens) [compound 97] | +++ (≥50 = +++)
266 (FLLDKPQDL; listed as Homo sapiens) [compound 266] | ++ (≥20% = ++)
167 (LVVDEGSLVSV; listed as Homo sapiens) [compound 167] | +++ (≥50 = +++)
143 (MLWESIMRV; listed as Homo sapiens) [compound 143] | +++ (≥50 = +++)
116 (ALLSSVAEA; listed as Homo sapiens) [compound 116] | ++ (≥20% = ++)
139 (IILENIQSL; listed as Homo sapiens) [compound 139] | +++ (≥50 = +++)
255 (FLMKNSDLYGA; listed as Homo sapiens) [compound 255] | +++ (≥50 = +++)
132 (ALLNNVIEV; listed as Homo sapiens) [compound 132] | +++ (≥50 = +++)
258 (QLVQRVASV; listed as Homo sapiens) [compound 258] | ++ (≥20% = ++)
75 (ALLDGALQL; listed as Homo sapiens) [compound 75] | +++ (≥50 = +++)

----------
system: HLA-A*02:01 (Homo sapiens, UniProt P04439, D140Y/D185E/D98H/E176V/E277Q/G131W/G231S/I119V/I121R/I166T/I218V/L300P/L318F/N151K/N90K/P208A/P217A/Q86G/Q94H/R138H/R169H/T345S)
protocolNotes: MHC binding assay: UV-ligand exchange with β2m ELISA (peptide exchange yield)
testParameters: binding to HLA-A*02:01 evaluated by peptide exchange yield (UV-ligand exchange, β2m ELISA)
endpointLabel: Peptide exchange

substance | endpointLabel | assayResult
200 (IMPTFDLTKV; listed as Homo sapiens) [compound 200] | Peptide exchange | +++ (≥50 = +++)
69 (LKVLKADVVL; listed as Homo sapiens) [compound 69] | Peptide exchange | ++ (≥20% = ++)
130 (QLYGSAITL; listed as Homo sapiens) [compound 130] | Peptide exchange | +++ (≥50 = +++)
166 (LLGDSSFFL; listed as Homo sapiens) [compound 166] | Peptide exchange | +++ (≥50 = +++)
267 (YLLDMPLWYL; listed as Homo sapiens) [compound 267] | Peptide exchange | +++ (≥50 = +++)
121 (ALYVQAPTV; listed as Homo sapiens) [compound 121] | Peptide exchange | ++ (≥20% = ++)
150 (VLLDMVHSL; listed as Homo sapiens) [compound 150] | Peptide exchange | +++ (≥50 = +++)
142 (LLDAAHASI; listed as Homo sapiens) [compound 142] | Peptide exchange | ++ (≥20% = ++)
126 (QLREAFEQL; listed as Homo sapiens) [compound 126] | Peptide exchange | +++ (≥50 = +++)
